molecular target: T1, recombinant human PD-1-his protein (human, UniProt Q15116 25-167); experiment: ELISA; PD-1-his coated 2 µg/mL, anti-human IgG Fc-HRP
T1 construct: also called hPD-1-his; not shown: his tag
T1 sequence (Q15116 25-167 limits assumed): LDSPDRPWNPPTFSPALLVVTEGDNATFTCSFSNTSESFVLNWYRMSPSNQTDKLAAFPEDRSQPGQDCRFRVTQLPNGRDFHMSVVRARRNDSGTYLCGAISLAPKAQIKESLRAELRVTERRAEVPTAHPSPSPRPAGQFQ
Reported Endpoint: EC50 (nM)

Take a look at these entries with their results.
>>> reported_result("MHPD1-A-38 H Fc (Fc fusion, not shown: a dimerising Fc or GST; small tags and cut ends) VHH: QVQLVESGGGLVQPGGSLRLSCATSGNRRSIYAMGWFRQAPGKGLEFVAGIGWAYATTYYADSVKGRFTISRDNTKNTLYLQMNSLRAEDTAVYYCAADLDRRGFDYWGQGTLVTVSS")
0.421
>>> reported_result("MHPD1-A-45 H Fc (Fc fusion, not shown: Fc) QVQLVESGGGLVQPGGSLRLSCATSHLRRSIYAMGWFRQAPGKGLEFVAGIGWAYATTYYADSVKGRFTISRDNTKNTLYLQMNSLRAEDTAVYYCAADLDHSGFDYWGQGTLVTVSS")
0.146

a: MHPD1-A-15 H Fc (Fc fusion, not shown: Fc) QVQLVESGGGLVQPGGSLRLSCATSGLRRSIYAMGWFRQAPGKGLEFVAGIGWAYSTTYYADSVKGRFTISRDNTKNTLYLQMNSLRAEDTAVYYCAADLDHSGFDYWGQGTLVTVSS
b: MHPD1-A-28 H Fc (Fc fusion, not shown: Fc region) VHH: QVQLVESGGGLVQPGGSLRLSCATSKLRRSIYAMGWFRQAPGKGLEFVAGIGWAYATQYYADSVKGRFTISRDNTKNTLYLQMNSLRAEDTAVYYCAADLDHSGFDYWGQGTLVTVSS
Hey, between a and b which has a smaller measured EC50? Pick one; state its label.
a
